- study-target: human adrenergic-α2A receptor (Homo sapiens)
- Construct: expressed in transfected cells; host or cells: CHO cells, stably transfected; membrane preparation
- Sequence (P08913 1-465): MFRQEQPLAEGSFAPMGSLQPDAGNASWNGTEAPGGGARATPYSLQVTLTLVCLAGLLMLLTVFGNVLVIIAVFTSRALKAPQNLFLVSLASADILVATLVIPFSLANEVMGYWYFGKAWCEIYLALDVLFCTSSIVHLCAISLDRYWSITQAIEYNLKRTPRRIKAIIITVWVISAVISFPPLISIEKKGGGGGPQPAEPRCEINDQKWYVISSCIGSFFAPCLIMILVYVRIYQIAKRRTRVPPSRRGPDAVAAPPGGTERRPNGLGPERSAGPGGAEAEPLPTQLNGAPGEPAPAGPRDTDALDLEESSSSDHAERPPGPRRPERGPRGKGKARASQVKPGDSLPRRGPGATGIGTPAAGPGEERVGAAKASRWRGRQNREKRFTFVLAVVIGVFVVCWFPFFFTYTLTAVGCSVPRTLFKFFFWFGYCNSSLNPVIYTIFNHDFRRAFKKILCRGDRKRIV
- test-summary: Radioligand binding experiment for hα2A-adrenergic receptor ([3H]raulwolscine)
- study-conditions: [3H]raulwolscine 1 nM, 60 minutes at 25° C.; read-out: h-α2A pIC50 (converted)
outcome-measure: IC50 (nM)

[1] O=C(CCn1ccnc(NC2CCN(Cc3ccc4ncccc4c3)CC2)c1=O)c1ccccc1
[2] CN(C)CCN(C)Cc1ccc(-n2ccnc(NC3CCN(Cc4ccc5ccccc5c4)CC3)c2=O)cc1
[3] COC(=O)CN(C)Cc1ccc(-n2ccnc(NC3CCN(Cc4ccc5ccccc5c4)CC3)c2=O)cc1
Ask | Order the entries by their reported IC50, beginning at the minimum. Use the labels to give the ranking in the order requested.
Reply | 2, 3, 1

----------
- study-target: human adrenergic-α2A receptor (Homo sapiens)
- Construct: expressed in transfected cells; host or cells: CHO cells, stably transfected; membrane preparation
- Sequence (P08913 1-465): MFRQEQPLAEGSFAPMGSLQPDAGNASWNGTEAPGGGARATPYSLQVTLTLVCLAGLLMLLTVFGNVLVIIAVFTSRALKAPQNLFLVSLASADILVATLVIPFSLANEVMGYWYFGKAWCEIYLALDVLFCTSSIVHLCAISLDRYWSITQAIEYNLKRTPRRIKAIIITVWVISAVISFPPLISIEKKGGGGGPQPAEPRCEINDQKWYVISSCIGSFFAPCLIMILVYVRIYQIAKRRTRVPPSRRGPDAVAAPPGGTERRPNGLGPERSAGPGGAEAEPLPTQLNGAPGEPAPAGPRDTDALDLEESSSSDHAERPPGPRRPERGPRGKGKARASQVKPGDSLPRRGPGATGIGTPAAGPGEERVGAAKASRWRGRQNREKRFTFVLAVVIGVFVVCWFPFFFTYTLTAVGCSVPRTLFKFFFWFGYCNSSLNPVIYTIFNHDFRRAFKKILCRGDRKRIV
- test-summary: Radioligand binding experiment for hα2A-adrenergic receptor ([3H]raulwolscine)
- study-conditions: [3H]raulwolscine 1 nM, 60 minutes at 25° C.; read-out: h-α2A pIC50 (converted)
outcome-measure: IC50 (nM)

Would you please look over these solved cases?
>>> meas_value("O=c1c(NC2CCN(Cc3ccc4ncccc4c3)CC2)nccn1CCCOCc1ccccc1")
1260
>>> meas_value("O=c1c(NC2CCN(Cc3ccc4ccccc4c3)CC2)nccn1CCC1OCCO1")
501
>>> meas_value("O=c1c(NC2CCN(Cc3ccc4ccccc4c3)CC2)nccn1Cc1cccc(Br)c1")
200
>>> meas_value("O=c1c(NC2CCN(Cc3ccc4ccccc4c3)CC2)nccn1-c1ccc(COCCN2CCOCC2)cc1")
200
>>> meas_value("O=c1c(NC2CCN(Cc3ccc4ccccc4c3)CC2)nccn1-c1ccc(NCCN2CCC(F)CC2)cc1")
200

[I] N#CCCn1ccnc(NC2CCN(Cc3ccc4ccccc4c3)CC2)c1=O
[II] O=C(CCN(c1nccn(CCC(=O)c2ccccc2)c1=O)C1CCN(Cc2cnc3ccccc3c2)CC1)c1ccccc1
Ask | Compare I and II by numeric IC50 and name the larger one. Answer format: the label of the selected item.
Reply | II

[I] Cc1ccc(CNC(=O)NCc2ccc(-n3ccnc(NC4CCN(Cc5ccc6ccccc6c5)CC4)c3=O)cc2)cc1F
[II] CCOC(CCn1ccnc(NC2CCN(Cc3ccc4ccccc4c3)CC2)c1=O)OC (stereo not drawn)
Ask | Compare I and II by numeric IC50 and name the larger one. Answer format: the label of the selected item.
Reply | II
